target entity: T1, Human Id3: Histidine (human, UniProt Q02535 1-119 at identity 1.00))
T1 construct: Fusion protein made in E. coli from vector pGW07; also called h-Id3: His; Human Id3 (coated wells); not shown: His tag
T1 chain: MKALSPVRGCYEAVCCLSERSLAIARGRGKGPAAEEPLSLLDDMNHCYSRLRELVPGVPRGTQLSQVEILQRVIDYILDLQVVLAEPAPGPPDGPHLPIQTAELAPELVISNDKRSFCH
test name: ELISA, Ab 0.000 µg/ml (blank)
For each record, write down the corresponding A450.
Report the figure in A450 without appending any unit label.

# return recorded A450 for input rabbit monoclonal anti-mouse/human Id3, clone #BCH-4/#6-1 (antibody, V domains shown, Rabbit IgG from a rabbit hybridoma; also called m/h Id3 MoAb 6-1) VH: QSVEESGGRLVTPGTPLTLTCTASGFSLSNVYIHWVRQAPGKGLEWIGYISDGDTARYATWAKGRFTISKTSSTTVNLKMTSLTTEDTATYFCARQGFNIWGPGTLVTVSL VL: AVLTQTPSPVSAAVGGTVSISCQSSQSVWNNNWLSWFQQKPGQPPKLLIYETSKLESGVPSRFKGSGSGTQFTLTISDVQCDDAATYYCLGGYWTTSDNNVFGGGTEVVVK 0.043

Please supply the value of reported A450 for the item rabbit monoclonal anti-mouse/human Id3, clone #BCH-4/#42-1 (antibody, V domains shown, Rabbit IgG from a rabbit hybridoma; also called m/h Id3 MoAb 42-1) VH: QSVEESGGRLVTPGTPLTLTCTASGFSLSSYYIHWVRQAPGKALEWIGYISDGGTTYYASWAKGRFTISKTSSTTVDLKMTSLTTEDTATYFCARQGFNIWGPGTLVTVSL VL: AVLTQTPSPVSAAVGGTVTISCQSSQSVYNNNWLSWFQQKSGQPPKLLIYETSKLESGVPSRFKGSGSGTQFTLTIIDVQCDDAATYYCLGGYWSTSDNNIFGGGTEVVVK 0.044

Input rabbit monoclonal anti-mouse/human Id3, clone #BCH-4/#16-1 (antibody, V domains shown, Rabbit IgG from a rabbit hybridoma; also called m/h Id3 MoAb 16-1) VH: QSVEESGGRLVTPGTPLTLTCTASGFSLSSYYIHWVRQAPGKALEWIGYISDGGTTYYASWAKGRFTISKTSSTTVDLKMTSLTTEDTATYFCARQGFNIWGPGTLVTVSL VL: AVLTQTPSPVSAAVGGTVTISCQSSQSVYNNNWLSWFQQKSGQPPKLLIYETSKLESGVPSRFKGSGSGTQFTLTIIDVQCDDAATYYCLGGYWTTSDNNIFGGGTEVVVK , output reported A450. 0.046

Output A450 of rabbit monoclonal anti-mouse/human Id3, clone #BCH-4/#17-3 (antibody, V domains shown, Rabbit IgG from a rabbit hybridoma; also called m/h Id3 MoAb 17-3; BCH-3/#17-3) VH: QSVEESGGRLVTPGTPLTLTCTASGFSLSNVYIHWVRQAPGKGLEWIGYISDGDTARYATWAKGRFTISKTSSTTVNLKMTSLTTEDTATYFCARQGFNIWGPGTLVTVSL VL: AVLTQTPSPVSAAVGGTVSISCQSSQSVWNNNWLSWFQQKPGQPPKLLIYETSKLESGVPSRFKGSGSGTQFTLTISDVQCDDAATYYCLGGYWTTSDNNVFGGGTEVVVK 0.045

Reference for the values: patent US20070178531A1
